Listed here: items and their measured growth.
- System: MDA-MB-435 melanoma
- run-description: NCI-60 one-dose screen, 48 h (100 = growth as untreated, 0 = no growth, -100 = all killed)
- measurement-parameters: 10 µM unless noted
About 83,000 compounds went through this panel and 20% of them were active in at least one assay; those are over-represented in the sample as a whole.
I only need the number, in %, no unit after it.

CCOC1Oc2ccccc2C(=O)/C1=N/c1nccs1 (stereo not given) = 104

Problem: Returns the measured growth for the input compound. Input: "COc1cccc(-c2nc3cc(NC(=O)c4ccc(Cl)c(C#N)c4)ccc3o2)c1"
Result: -73.3

Problem: Returns the measured growth for the input compound. Input: "CCOC(=O)N1CCC(N=C2CSc3nnc(-c4cc(C(F)(F)F)cc(C(F)(F)F)c4)n3N2)CC1"
Result: 24.9

Problem: Returns the measured growth for the input compound. Input: COc1ccc(C2=NN(C(N)=S)C(c3ccc4c(c3)OCO4)C2)cc1 (stereo not given)
Result: 3.04

Problem: Returns the measured growth for the input compound. Input: "Cc1n(Cc2ccc3ccccc3c2)cc[n+]1Cc1ccc2ccccc2c1"
Result: -14.6

Problem: Returns the measured growth for the input compound. Input: "COc1c(Br)cc(C(c2cc(Br)c(OC)c(Br)c2)c2ccccc2C(=O)O)cc1Br"
Result: 104

Problem: Returns the measured growth for the input compound. Input: "O=C(N/N=C/c1ccc(Cl)cc1Cl)c1ccccc1Nc1cccc(C(F)(F)F)c1"
Result: 70.7

Problem: Returns the measured growth for the input compound. Input: "CCc1nn2c(-c3ccc(Cl)cc3C)c(-c3cc(OC)c(OC)c(OC)c3)nc2s1"
Result: 81.3

Problem: Returns the measured growth for the input compound. Input: "COc1cccc(N2CCN(c3cccc(C)n3)CC2)c1"
Result: 95.1

Problem: Returns the measured growth for the input compound. Input: "Cn1cnc([N+](=O)[O-])c1Sc1nc(N)nc2nc[nH]c12"
Result: 25

----------
- Tested on: LOX IMVI melanoma
- run-description: NCI-60 one-dose screen, 48 h (100 = growth as untreated, 0 = no growth, -100 = all killed)
- measurement-parameters: 10 µM unless noted
This is part of a sample that, as a whole, favours compounds with a hit. Of some 83,000 tested, about 20% had one in any assay.
Listed here: items and their measured growth.
I only need the number, in %, no unit after it.

Observe how each entry below is paired with its result.
Cc1sc2nc(NCc3ccccc3)[nH]c(=O)c2c1C = 53
COc1cnc2c(c1)C(=O)c1c-2n(CCCN2CCC(O)CC2)c(=O)c2cc(F)ccc12 = -70.3
CC[C@H]1CN2CCc3cc(OC)c(OC)cc3C2C[C@@H]1CC1NCCc2cc(OC)c(OC)cc21 (stereo partly specified) = -27.8
Cc1cc(-c2ccccc2)cc(C)n1 = 96.9
COc1ccc2c(c1)c(CC(=O)[Se]C)c(C)n2C(=O)c1ccc(Cl)cc1 = -69.5

Problem: Returns the measured growth for the input molecule. Input: "COc1ccc2c(c1)[n+](=O)c(/C=C/C(=O)c1cc(OC)c(OC)c(OC)c1)c(C)n2[O-]"
Result: 51.3

Problem: Returns the measured growth for the input molecule. Input: "O=C1N=C(N2CCOCC2)S/C1=C\c1cn(-c2ccccc2)nc1-c1ccccc1"
Result: 76

Problem: Returns the measured growth for the input molecule. Input: COc1ccc(C2=NN(C=O)C(c3cccc(Nc4ccnc5cc(Cl)ccc45)c3)C2)cc1 (stereo unspecified)
Result: 25

Problem: Returns the measured growth for the input molecule. Input: COc1cc(C2CC(c3ccc(C)cc3)=NN2C=O)ccc1OCCN(C)C (stereo unspecified)
Result: 89.8

Problem: Returns the measured growth for the input molecule. Input: "CCN(CC)c1ccc(C(=C2C=CC(=[N+](CC)Cc3cccc(S(=O)(=O)O)c3)C=C2)c2ccc(N(CC)Cc3cccc(S(=O)(=O)O)c3)cc2)cc1"
Result: 35.4

Problem: Returns the measured growth for the input molecule. Input: "COc1ccc(C(=O)/C=C/c2ccc(C)cc2)cc1OC"
Result: 48.6

Problem: Returns the measured growth for the input molecule. Input: "Cc1sc2nc3c4ccccc4c(NCCCN(C)C)nn3c(=O)c2c1C"
Result: -39

Problem: Returns the measured growth for the input molecule. Input: CCCCOP(=O)(OCCCC)C(C(=O)OCC)C(CC(=O)OCC)C(=O)OCC (stereo unspecified)
Result: 109

Problem: Returns the measured growth for the input molecule. Input: CC[C@@H](C)/C=C(C)/C=C/C(=O)c1c(O)c(-c2ccc(O)cc2)cn(OC2CC(=O)CCC(C)OC(=O)CC2O)c1=O (stereo partly specified)
Result: 2.2

Problem: Returns the measured growth for the input molecule. Input: N#CSCC1CC(O)(c2ccccc2)C(c2ccccc2)C(c2ccc(Cl)cc2)O1 (stereo unspecified)
Result: -97.4

Problem: Returns the measured growth for the input molecule. Input: Cc1ccc(C(NC(=O)c2ccccc2)c2ccc3cccnc3c2O)cc1 (stereo unspecified)
Result: 11.1

Problem: Returns the measured growth for the input molecule. Input: Clc1ccc2c(c1)C(Br)c1cc(Cl)cc(Cl)c1-2 (stereo unspecified)
Result: 4.27

Problem: Returns the measured growth for the input molecule. Input: "O=C1C=CC(=O)N1c1ccccn1"
Result: 93.6

Problem: Returns the measured growth for the input molecule. Input: "c1ccc(-c2oc(-c3ccccc3)c3ccccc23)cc1"
Result: 88.5

Problem: Returns the measured growth for the input molecule. Input: "C=CCN(/C=C/CN(CC=C)CC=C)CC=C"
Result: 103

Problem: Returns the measured growth for the input molecule. Input: "O=c1[nH]cc(Nc2cc(Cl)c3nonc3c2[N+](=O)[O-])c(=O)[nH]1"
Result: 95
